Reference source for all entries: patent US8349827B2

# experimental-target: ABL (Homo sapiens, UniProt P00519)
# protocol-description: ABL Kinase Activity Assay (Elisa), ABL
# Format: biochemical
# condition-context: ATP 100 μM, read-out: Abl Enzymetic assay (Elisa) % inhibition

compound | inhibition at 10 µM
Fc1cccc(CNc2ncc3c(n2)-c2cccnc2Nc2cnccc2-3)c1 | 80 to 100%
c1cnc2c(c1)-c1nc(NC3CCCCC3)ncc1-c1ccncc1N2 | 80 to 100%
Nc1ncc2c(n1)-c1cccnc1Nc1ccccc1-2 | 50 to 79%
CC(CO)Nc1ncc2c(n1)-c1cccnc1Nc1cnccc1-2 (stereo not drawn) | 80 to 100%
FC(F)(F)c1ccc(CNc2ncc3c(n2)-c2cccnc2Nc2cnccc2-3)cc1 | < 50%
c1ccc(-c2cccc(CNc3ncc4c(n3)-c3cccnc3Nc3cnccc3-4)c2)cc1 | 80 to 100%
Fc1cccc(CCNc2ncc3c(n2)-c2cccnc2Nc2cnccc2-3)c1 | 50 to 79%
c1ccc(CCNc2ncc3c(n2)-c2cccnc2Nc2cnccc2-3)cc1 | 80 to 100%
Clc1cccc(CCNc2ncc3c(n2)-c2cccnc2Nc2cnccc2-3)c1 | 80 to 100%

----------
# experimental-target: ABL (Homo sapiens)
# protocol-description: ABL Kinase Activity Assay (Elisa), ABL
# Assay type: biochemical
# condition-context: ATP 100 μM, read-out: Abl Enzymetic assay (Elisa) % inhibition
Listing of recorded inhibition at 10 µM by entry.

compound | inhibition at 10 µM
Cc1cnc(CNc2ncc3c(n2)-c2cccnc2Nc2cnccc2-3)cn1 | < 50%
COc1ccc(CCNc2ncc3c(n2)-c2cccnc2Nc2cnccc2-3)cc1OC | 80 to 100%
Fc1ccc(CNc2ncc3c(n2)-c2cccnc2Nc2cnccc2-3)cc1Cl | 80 to 100%
c1ccc(CNc2ncc3c(n2)-c2cccnc2Nc2cnccc2-3)cc1 | 80 to 100%
Clc1cccc(CNc2ncc3c(n2)-c2cccnc2Nc2cnccc2-3)c1 | 80 to 100%
Clc1ccccc1CNc1ncc2c(n1)-c1cccnc1Nc1cnccc1-2 | 50 to 79%
Fc1ccc(CNc2ncc3c(n2)-c2cccnc2Nc2cnccc2-3)c(Cl)c1 | 80 to 100%
COc1cc(CNc2ncc3c(n2)-c2cccnc2Nc2cnccc2-3)cc(OC)c1 | 50 to 79%
FC(F)(F)c1cccc(CNc2ncc3c(n2)-c2cccnc2Nc2cnccc2-3)c1 | 80 to 100%
Brc1ccc(CCNc2ncc3c(n2)-c2cccnc2Nc2cnccc2-3)cc1 | 80 to 100%
Clc1ccc(CNc2ncc3c(n2)-c2cccnc2Nc2cnccc2-3)cc1 | 50 to 79%
FC(F)(F)c1ccccc1CNc1ncc2c(n1)-c1cccnc1Nc1cnccc1-2 | 50 to 79%
CCC(CC)Nc1ncc2c(n1)-c1cccnc1Nc1cnccc1-2 | 80 to 100%
COc1ccc(CNc2ncc3c(n2)-c2cccnc2Nc2cnccc2-3)cc1OC | 80 to 100%
Fc1ccc(CNc2ncc3c(n2)-c2cccnc2Nc2cnccc2-3)c(F)c1 | 80 to 100%
CN(C)CCCCNc1ncc2c(n1)-c1cccnc1Nc1cnccc1-2 | 50 to 79%
COc1ccccc1CNc1ncc2c(n1)-c1cccnc1Nc1cnccc1-2 | < 50%
CCCC(C)Nc1ncc2c(n1)-c1cccnc1Nc1cnccc1-2 (stereo not shown) | 80 to 100%
Fc1ccccc1CNc1ncc2c(n1)-c1cccnc1Nc1cnccc1-2 | 80 to 100%

----------
Reported inhibition at 10 µM values follow for various compounds
# Test system: MDA-MB-231
# protocol-description: MTS assay, MDA-MB-231 cells
# Assay type: cell-based
# condition-context: Homo sapiens, 72 hours

smiles-repr | inhibition at 10 µM
c1cnc2c(c1)-c1nc(NCc3ccnc4[nH]ccc34)ncc1-c1ccncc1N2 | < 50%
Clc1ccc(CNc2ncc3c(n2)-c2cccnc2Nc2cnccc2-3)cc1 | < 50%
c1cnc2c(c1)-c1nc(NC3CCCCC3)ncc1-c1ccncc1N2 | < 50%
c1ccc(CNc2ncc3c(n2)-c2cccnc2Nc2cnccc2-3)cc1 | < 50%
COc1ccccc1CNc1ncc2c(n1)-c1cccnc1Nc1cnccc1-2 | 80 to 100%
Fc1cccc(CCNc2ncc3c(n2)-c2cccnc2Nc2cnccc2-3)c1 | 80 to 100%
Cc1ccccc1CCNc1ncc2c(n1)-c1cccnc1Nc1cnccc1-2 | < 50%
c1ccc2c(c1)Nc1ncccc1-c1nc(NCc3ccnc4[nH]ccc34)ncc1-2 | 50 to 79%
c1cnc2c(c1)-c1nc(NC3CCNCC3)ncc1-c1ccncc1N2 | 80 to 100%
FC(F)(F)c1ccccc1CNc1ncc2c(n1)-c1cccnc1Nc1cnccc1-2 | < 50%
OCCc1ccc(Nc2ncc3c(n2)-c2cccnc2Nc2ccccc2-3)cc1 | < 50%
Fc1ccc(CNc2ncc3c(n2)-c2cccnc2Nc2cnccc2-3)c(F)c1 | < 50%
c1cnc2c(c1)-c1nc(NCCCN3CCCC3)ncc1-c1ccncc1N2 | < 50%
COc1cccc(CNc2ncc3c(n2)-c2cccnc2Nc2cnccc2-3)c1 | < 50%
Clc1cccc(CNc2ncc3c(n2)-c2cccnc2Nc2ccccc2-3)c1 | < 50%
Clc1cccc(CNc2ncc3c(n2)-c2cccnc2Nc2cnccc2-3)c1 | < 50%
Fc1ccc(CNc2ncc3c(n2)-c2cccnc2Nc2cnccc2-3)cc1F | 80 to 100%
c1cnc2c(c1)-c1nc(NCC3CCNCC3)ncc1-c1ccncc1N2 | 80 to 100%
O=C1CCCN1CCCNc1ncc2c(n1)-c1cccnc1Nc1cnccc1-2 | < 50%

----------
Counter-ions that a name gives are not always drawn.
readout: melting point

molecule | readout | endpoint-value
CN(C)CCCCCNc1ncc2c(n1)-c1cccnc1Nc1cnccc1-2 (as salt: TFA) | melting point | 133 to 136 °C
Cc1cccc2c(CCNc3ncc4c(n3)-c3cccnc3Nc3cnccc3-4)c[nH]c12 | melting point | 153 to 155 °C
Cc1cccc2c(CCNc3ncc4c(n3)-c3cccnc3Nc3ccccc3-4)c[nH]c12 | melting point | 188 to 190 °C
c1cnc2c(c1)-c1nc(NC3CCNCC3)ncc1-c1ccncc1N2 (as salt: TFA) | melting point | 189 to 191 °C
OCCc1cccc(Nc2ncc3c(n2)-c2cccnc2Nc2cnccc2-3)c1 | melting point | 208 to 211 °C
c1ccc(-c2ncc3c(n2)-c2cccnc2Nc2cnccc2-3)cc1 | melting point | > 300 °C
Fc1ccc(CNc2ncc3c(n2)-c2cccnc2Nc2cnccc2-3)c(F)c1 | melting point | 264 to 266 °C
CN(C)CCCCNc1ncc2c(n1)-c1cccnc1Nc1cnccc1-2 (as salt: TFA) | melting point | 154 to 156 °C
c1cnc2c(c1)-c1nc(NCC3CCNCC3)ncc1-c1ccncc1N2 (as salt: TFA) | melting point | 151 to 153 °C
Nc1ccc(-c2ncc3c(n2)-c2cccnc2Nc2cnccc2-3)cc1 | melting point | > 300 °C
c1ccc(CNc2ncc3c(n2)-c2cccnc2Nc2cnccc2-3)nc1 (as salt: TFA) | melting point | 253 to 255 °C
c1cnc2c(c1)-c1nc(NCc3ccnc4[nH]ccc34)ncc1-c1ccncc1N2 | melting point | 208 to 211 °C
c1ccc2c(c1)Nc1ncccc1-c1nc(NCc3ccnc4[nH]ccc34)ncc1-2 | melting point | 285 to 288 °C
CN(C)CCCNc1ncc2c(n1)-c1cccnc1Nc1cnccc1-2 (as salt: TFA) | melting point | > 253 °C
Clc1cccc(CNc2ncc3c(n2)-c2cccnc2Nc2cnccc2-3)c1 | melting point | 195 to 196 °C

----------
# experimental-target: ABL T315I (Homo sapiens, UniProt P00519, T315I)
# protocol-description: ABL Kinase Activity Assay (Elisa), ABL T315I
# Assay type: biochemical
# condition-context: ATP 100 μM, read-out: Abl(T315I) Enzymetic assay (Elisa) % inhibition
Below, each entry is listed alongside its reported inhibition at 10 µM.

smiles-repr | inhibition at 10 µM
CCCN1CCC(Nc2ncc3c(n2)-c2cccnc2Nc2cnccc2-3)CC1 | < 50%
c1cnc2c(c1)-c1nc(NC3CCCCC3)ncc1-c1ccncc1N2 | 80 to 100%
Cc1cccc2c(CCNc3ncc4c(n3)-c3cccnc3Nc3cnccc3-4)c[nH]c12 | 80 to 100%
FC(F)(F)c1ccc(CNc2ncc3c(n2)-c2cccnc2Nc2cnccc2-3)cc1 | < 50%
COc1ccc(CCNc2ncc3c(n2)-c2cccnc2Nc2cnccc2-3)cc1OC | 80 to 100%

----------
# experimental-target: ABL T315I (Homo sapiens, UniProt P00519, T315I)
# protocol-description: ABL Kinase Activity Assay (Elisa), ABL T315I
# Format: biochemical
# condition-context: ATP 100 μM, read-out: Abl(T315I) Enzymetic assay (Elisa) % inhibition
Below, each entry is listed with its recorded inhibition at 10 µM.
readout: inhibition at 10 µM

compound | endpoint-value
CCCCNc1ncc2c(n1)-c1cccnc1Nc1cnccc1-2 [Example 7] | 80 to 100%
O=C1CCCN1CCCNc1ncc2c(n1)-c1cccnc1Nc1cnccc1-2 [Example 4] | 80 to 100%
c1ccc(-c2cccc(CNc3ncc4c(n3)-c3cccnc3Nc3cnccc3-4)c2)cc1 [Example 45] | 80 to 100%
